Source of measurements: patent US20250353873A1

Can you tell me APOE RNA (% control) Cortex for the items I'm about to list?
tested on: human APOE RNA; assay: Activity in APOE C57BL/6NTac-Apoeem7250 knock-in mice, single ICV bolus, 8 weeks (Example 11); type: in vivo; conditions: cortex; single ICV bolus 300 μg; 8 weeks post treatment; normalized to mouse Ppia
Strand notation (5' to 3'): a small letter for the sugar, then the base; units joined by * are phosphorothioate-linked, units joined directly phosphodiester-linked; [ ] holds rarer units or linkages, { } end groups; capitals alone tell only the bases. [ms] = mesyl phosphoramidate linkage; e = 2'-O-(2-methoxyethyl) (MOE); k = constrained ethyl (cEt); [5mC] = 5-methylcytosine; d = 2'-deoxy (DNA)
Answers are plain numbers, in % control.

1778117 (eA*e[5mC]eTeTeG*eG*dT*dG[ms]dA[ms]dA*dT*d[5mC]*dT*dT*dT*dA[ms]kT*eT*eA*eA; antisense) [Compound 1778117] | 49

Return reported APOE RNA (% control) Cortex values for all items listed beneath this line.
1. 1785604: modified oligonucleotide complementary to human APOE RNA (k[5mC]*dT[ms]dT[ms]kG*dG[ms]kT*dG[ms]dA[ms]dA*dT*d[5mC]*dT*dT*dT*dA*dT*kT*kA*dA[ms]kA; antisense) [compound 1785604]
2. 1693041: 5-10-5 MOE gapmer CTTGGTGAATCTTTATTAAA, linkages ssossszzzssssssosss (antisense e[5mC]*eT*eTeG*eG*dT*dG[ms]dA[ms]dA[ms]dT*d[5mC]*dT*dT*dT*dA*eTeT*eA*eA*eA) [compound 1693041]
3. 1681004: 5-10-5 MOE gapmer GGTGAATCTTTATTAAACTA, linkages ssooszsssszzszsooss (antisense eG*eG*eTeGeA*dA[ms]dT*d[5mC]*dT*dT*dT[ms]dA[ms]dT*dT[ms]dA*eAeAe[5mC]*eT*eA) [compound 1681004]

Outgoing:
1. 28
2. 75
3. 120

----------
tested on: human APOE RNA; test: Dose-dependent inhibition of human APOE RNA in HepG2 cells, electroporation, 50,000 cells per well, RT-PCR normalized to GAPDH (Example 4, Tables 8-10); assay type: cell-based; settings: 3,200 nM; HepG2, electroporation, 24-hour treatment
Strand notation (5' to 3'): a small letter for the sugar, then the base; units joined by * are phosphorothioate-linked, units joined directly phosphodiester-linked; [ ] holds rarer units or linkages, { } end groups; capitals alone tell only the bases. [ms] = mesyl phosphoramidate linkage; k = constrained ethyl (cEt); [5mC] = 5-methylcytosine; d = 2'-deoxy (DNA)
ASSAY_METRIC: APOE RNA (% UTC)
One number for each entry, in % UTC.

Record excerpt, results attached:
1746785 (k[5mC]*kT*dT[ms]kG*dG[ms]dT[ms]dG[ms]dA[ms]dA[ms]dT*d[5mC]*dT*dT*dT*dA[ms]dT*kT*kA*dA[ms]kA; antisense) [Compound 1746785] | 29
1746799 (k[5mC]*dT[ms]kT*dG[ms]kG*dT[ms]dG[ms]dA[ms]dA[ms]dT*d[5mC]*dT*dT*dT*dA[ms]dT*kT*dA[ms]kA*kA; antisense) [Compound 1746799] | 23
1746795 (k[5mC]*kT*dT[ms]kG*dG[ms]dT[ms]dG[ms]dA[ms]dA[ms]dT*d[5mC]*dT*dT*dT*dA[ms]dT*kT*dA[ms]kA*kA; antisense) [Compound 1746795] | 28

Return reported APOE RNA (% UTC) values for all items listed beneath this line.
1. 1746787 (k[5mC]*kT*dT[ms]dG[ms]dG[ms]kT*dG[ms]dA[ms]dA[ms]dT*d[5mC]*dT*dT*dT*dA[ms]dT*kT*kA*dA[ms]kA; antisense) [Compound 1746787]
2. 1746804 (k[5mC]*kT*kT*dG[ms]dG[ms]dT[ms]dG[ms]dA[ms]dA[ms]dT*d[5mC]*dT*dT*dT*dA[ms]dT*dT[ms]kA*kA*kA; antisense) [Compound 1746804]

Outgoing:
1: 37; 2: 40

----------
test system: human APOE RNA; assay: Activity in APOE C57BL/6NTac-Apoeem7250 knock-in mice, single ICV bolus, 8 weeks (Example 11); type: in vivo; conditions: spinal cord; single ICV bolus 300 μg; 8 weeks post treatment; normalized to mouse Ppia
Strand notation (5' to 3'): a small letter for the sugar, then the base; units joined by * are phosphorothioate-linked, units joined directly phosphodiester-linked; [ ] holds rarer units or linkages, { } end groups; capitals alone tell only the bases. [ms] = mesyl phosphoramidate linkage; e = 2'-O-(2-methoxyethyl) (MOE); k = constrained ethyl (cEt); [5mC] = 5-methylcytosine; d = 2'-deoxy (DNA)
ASSAY_METRIC: APOE RNA (% control) Spinal Cord
Numbers only, in % control.

1746800 (k[5mC]*dT[ms]kT*dG[ms]dG[ms]kT*dG[ms]dA[ms]dA[ms]dT*d[5mC]*dT*dT*dT*dA[ms]dT*kT*dA[ms]kA*kA; antisense) [Compound 1746800] | 30

Return reported APOE RNA (% control) Spinal Cord values for all items listed beneath this line.
1. 1810065: mixed MOE/cEt gapmer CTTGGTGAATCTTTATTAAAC, sugar eeeeekddddddddddeeeee, linkages ssoosszzzssssszsooss (listed as DNA, chemistry not fully specified) [compound 1810065]
2. 1693044: 5-10-5 MOE gapmer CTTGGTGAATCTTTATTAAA, linkages sssoszzzzssssssssss (antisense e[5mC]*eT*eT*eGeG*dT[ms]dG[ms]dA[ms]dA[ms]dT*d[5mC]*dT*dT*dT*dA*eT*eT*eA*eA*eA) [compound 1693044]
3. Compound No. 1517578: comparator of WO 2022/066956; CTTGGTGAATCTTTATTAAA, sugar eeeeeddddddddddeeeee, linkages sooosssssssssssooss (MOE gapmer, mixed PS/PO linkages, chemistry not fully specified) [reference compound]

Outgoing:
1. 21
2. 95
3. 47

----------
Can you tell me APOE RNA (% UTC) for the items I'm about to list?
test system: human APOE RNA; assay: Dose-dependent inhibition of human APOE RNA in HepG2 cells, electroporation, 24 hours (Example 6); assay type: cell-based; conditions: 205 nM
Strand notation (5' to 3'): a small letter for the sugar, then the base; units joined by * are phosphorothioate-linked, units joined directly phosphodiester-linked; [ ] holds rarer units or linkages, { } end groups; capitals alone tell only the bases. [ms] = mesyl phosphoramidate linkage; e = 2'-O-(2-methoxyethyl) (MOE); k = constrained ethyl (cEt); [5mC] = 5-methylcytosine; d = 2'-deoxy (DNA)

Record excerpt, results attached:
1736529 (e[5mC]*eT*eT*eG*eG*eTdG[ms]dA[ms]dA[ms]dT*d[5mC]*dT*dT*dT*dA[ms]dT*kT*kA*eA*eA; antisense) [Compound 1736529] | 75 % UTC
1736518: 6-10-4 MOE gapmer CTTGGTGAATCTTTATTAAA, linkages soossszzzssssssssss (e[5mC]*eTeTeG*eG*eT*dG[ms]dA[ms]dA[ms]dT*d[5mC]*dT*dT*dT*dA*dT*eT*eA*eA*eA) [compound 1736518] | 64 % UTC
1736517 (e[5mC]*eTeTeG*kG*kT*dG[ms]dA[ms]dA[ms]dT*d[5mC]*dT*dT*dT*dA[ms]dT*eT*eA*eA*eA; antisense) [Compound 1736517] | 57 % UTC
1736493 (e[5mC]*eTeT*eG*eG*eT*dG[ms]dA[ms]dA[ms]dT*d[5mC]*dT*dT*dT*dA[ms]dT*kT*kA*eA*eA; antisense) [Compound 1736493] | 50 % UTC
1736533 (e[5mC]*eT*eT*eG*eGeT*dG[ms]dA[ms]dA[ms]dT*d[5mC]*dT*dT*dT*dA[ms]dT*kT*eA*eA*eA; antisense) [Compound 1736533] | 55 % UTC
1736525: 6-10-4 MOE gapmer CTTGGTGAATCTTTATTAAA, linkages sooosszzsssssssssss (e[5mC]*eTeTeGeG*eT*dG[ms]dA[ms]dA*dT*d[5mC]*dT*dT*dT*dA*dT*eT*eA*eA*eA) [compound 1736525] | 70 % UTC

Return reported APOE RNA (% UTC) values for all items listed beneath this line.
1. 1736524: 6-10-4 MOE gapmer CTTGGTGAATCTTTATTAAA, linkages sssooozzssssssssoss (e[5mC]*eT*eT*eGeGeTdG[ms]dA[ms]dA*dT*d[5mC]*dT*dT*dT*dA*dT*eTeA*eA*eA) [compound 1736524]
2. 1736526: 6-10-4 MOE gapmer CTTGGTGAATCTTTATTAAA, linkages ssoooszzsssssssssss (e[5mC]*eT*eTeGeGeT*dG[ms]dA[ms]dA*dT*d[5mC]*dT*dT*dT*dA*dT*eT*eA*eA*eA) [compound 1736526]
3. 1693105: 6-10-4 MOE gapmer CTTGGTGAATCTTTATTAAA, linkages sosssszzzssssszssss (e[5mC]*eTeT*eG*eG*eT*dG[ms]dA[ms]dA[ms]dT*d[5mC]*dT*dT*dT*dA[ms]dT*eT*eA*eA*eA) [compound 1693105]
4. 1736523: 6-10-4 MOE gapmer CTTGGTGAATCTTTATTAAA, linkages ssoooszzssssssssoss (e[5mC]*eT*eTeGeGeT*dG[ms]dA[ms]dA*dT*d[5mC]*dT*dT*dT*dA*dT*eTeA*eA*eA) [compound 1736523]
5. 1736531 (e[5mC]*eT*eT*eG*eG*kTdG[ms]dA[ms]dA[ms]dT*d[5mC]*dT*dT*dT*dA[ms]dT*eT*eA*eA*eA; antisense) [Compound 1736531]
6. 1736520: 6-10-4 MOE gapmer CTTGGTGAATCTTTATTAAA, linkages sossoszzzssssssssss (e[5mC]*eTeT*eG*eGeT*dG[ms]dA[ms]dA[ms]dT*d[5mC]*dT*dT*dT*dA*dT*eT*eA*eA*eA) [compound 1736520]
7. 1736535 (e[5mC]*eT*eT*eG*eGkT*dG[ms]dA[ms]dA[ms]dT*d[5mC]*dT*dT*dT*dA[ms]dT*eT*eA*eA*eA; antisense) [Compound 1736535]
8. 1652902: 6-10-4 MOE gapmer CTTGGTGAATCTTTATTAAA, linkages sooooossssssssssoss (antisense e[5mC]*eTeTeGeGeTdG*dA*dA*dT*d[5mC]*dT*dT*dT*dA*dT*eTeA*eA*eA) [compound 1652902]

Outgoing:
["66 % UTC", "71 % UTC", "101 % UTC", "78 % UTC", "77 % UTC", "62 % UTC", "67 % UTC", "26 % UTC"]

Return reported APOE RNA (% UTC) values for all items listed beneath this line.
1. 1736527: 6-10-4 MOE gapmer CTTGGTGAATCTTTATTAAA, linkages sssooozzsssssssssss (e[5mC]*eT*eT*eGeGeTdG[ms]dA[ms]dA*dT*d[5mC]*dT*dT*dT*dA*dT*eT*eA*eA*eA) [compound 1736527]
2. 1693102: 6-10-4 MOE gapmer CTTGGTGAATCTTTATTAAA, linkages ssssoszzzssssszssss (e[5mC]*eT*eT*eG*eGeT*dG[ms]dA[ms]dA[ms]dT*d[5mC]*dT*dT*dT*dA[ms]dT*eT*eA*eA*eA) [compound 1693102]
3. 1736534 (e[5mC]*eT*eT*eG*eGeT*dG[ms]dA[ms]dA[ms]dT*d[5mC]*dT*dT*dT*dA[ms]dT*kT*kA*eA*eA; antisense) [Compound 1736534]

Outgoing:
["92 % UTC", "80 % UTC", "65 % UTC"]

Incoming: Report APOE RNA (% UTC) for 1736516 (e[5mC]*eTeTeG*eG*kT*dG[ms]dA[ms]dA[ms]dT*d[5mC]*dT*dT*dT*dA[ms]dT*eT*eA*eA*eA; antisense) [Compound 1736516] please.
Outgoing: 58 % UTC
